# Tested on: DeltatarO mutant
# Experiment: S. aureus survival, RN4220 and DeltatarO strains – OD600, teichoic acid synthesis inhibitors, primary screen (AID 463173)
# Particulars: S. aureus RN4220 wild type/DeltatarO growth, OD600, 18 h, active compounds read low, screened at 18.75 µg/mL (by protocol)
About 4,300 (8.3%) of roughly 52,000 compounds were called active. For the sample, actives were picked, then their nearest neighbours and some compounds at random.
Outcome measure: survival (%)
Quick note: give the figure in %, leave out the unit.

Example entries begin here.
GET /values?readout=survival&item= COc1cccc(NS(=O)(=O)c2ccc3[nH]cc(C(=O)N4CCCCCC4)c(=O)c3c2)c1
124

Param item: Cc1ccc(-n2nc(C(=O)N3CCN(c4ccccc4F)CC3)c3c4ccccc4n(C)c3c2=O)cc1
88

Param item: Cc1cccc(C(=O)Nc2ccc(OCc3cc(=O)n4ccsc4n3)cc2)c1
101

Param item: COc1cccc(OC(=O)N2CCOCC2)c1
103

Query compound follows.
GET /values?readout=survival&item= COc1cccc(NS(=O)(=O)c2ccc3[nH]cc(C(=O)N(C)C4CCCCC4)c(=O)c3c2)c1
98

----------
# Test system: DeltatarO mutant
# Experiment: S. aureus survival, RN4220 and DeltatarO strains – OD600, teichoic acid synthesis inhibitors, primary screen (AID 463173)
# Particulars: S. aureus RN4220 wild type/DeltatarO growth, OD600, 18 h, active compounds read low, screened at 18.75 µg/mL (by protocol)
Out of some 52,000 compounds screened, about 4,300 (8.3%) were called active. Only a selection was taken, and actives are over-represented in it overall.
Outcome measure: survival (%)
Quick note: give the figure in %, leave out the unit.

Example entries begin here.
GET /values?readout=survival&item= C=CCc1ccc(OCc2ccc(C(=O)Nc3ccc(NC(C)=O)cc3)o2)c(OC)c1
121

Param item: CCOc1ccc(NC(=O)c2cc(=O)c3cc(CC)ccc3o2)cc1
57

---
GET /values?readout=survival&item= Cc1ccc(CCNC(=O)c2cc3sccc3n2Cc2ccc(F)cc2)cc1
87

Param item: COC(=O)c1ccccc1NC(=O)c1ccc(COc2cc(C)cc(C)c2)o1
40

Param item: COC(=O)c1ccccc1NC(=O)c1ccc(COc2ccccc2Cl)o1
63

Param item: O=C(Cn1nc(C(F)(F)F)c2c1CCC2)Nc1ccc(Cl)cc1
54

Param item: Cc1cc(C)cc(OCc2ccc(C(=O)Nc3ccccc3F)o2)c1
45

----------
# Tested on: DeltatarO mutant
# Experiment: S. aureus survival, RN4220 and DeltatarO strains – OD600, teichoic acid synthesis inhibitors, primary screen (AID 463173)
# Particulars: S. aureus RN4220 wild type/DeltatarO growth, OD600, 18 h, active compounds read low, screened at 18.75 µg/mL (by protocol)
Out of some 52,000 compounds screened, about 4,300 (8.3%) were called active. What follows is part of a selection rich in actives, with near analogues and random picks from the rest.
// thresholds for survival classes: one: < 80%; two: ≥ 80% and < 90%; three: ≥ 90%

Example entries begin here.
Hey, which category is Cc1ccc(O)c(NC(=O)CCS(=O)(=O)c2nc(-c3cccs3)cc(C(F)(F)F)n2)c1 in, do you know?
one

Param item: COc1ccc(-c2cn3nc(N4CCC(C(=O)Nc5cccc(OC)c5)CC4)sc3n2)cc1
three

---
Hey, which category is Cc1cc(C)c(S(=O)(=O)Nc2nnc(C(F)(F)F)s2)c(C)c1 in, do you know?
one

Param item: Cc1ccc(Cc2nc3ccccc3nc2SCC(=O)NCc2ccccc2Cl)cc1
three

----------
Some compounds, each annotated with its measured survival.
# System: DeltatarO mutant
# Experiment: S. aureus survival, RN4220 and DeltatarO strains – OD600, teichoic acid synthesis inhibitors, primary screen (AID 463173)
# Particulars: S. aureus RN4220 wild type/DeltatarO growth, OD600, 18 h, active compounds read low, screened at 18.75 µg/mL (by protocol)
In all, about 52,000 compounds went through this assay and about 4,300 (8.3%) were called active. The sample holds actives, similar compounds and a random draw of the others, so the mix is not that of the screen.
Quick note: give the figure in %, leave out the unit.

GET /values?readout=survival&item= c1ccc(CNCC2COc3ccccc3O2)cc1 (stereo not given)
114

Param item: Cc1nc(N2CCCC2)c2c(C(=O)Nc3ccc(Br)cc3F)c(C)oc2n1
25

Param item: CCOc1ccc(-n2c(SCC(=O)c3ccccc3)nc3c([nH]c4ccccc43)c2=O)cc1
131

Param item: Cc1nc(N2CCCC2)c2c(C(=O)Nc3cccc(Cl)c3)c(C)oc2n1
20

---
GET /values?readout=survival&item= Cc1nc(N2CCCC2)c2c(C(=O)Nc3ccc(C)c(Cl)c3)c(C)oc2n1
124

----------
# Tested on: DeltatarO mutant
# Experiment: S. aureus survival, RN4220 and DeltatarO strains – OD600, teichoic acid synthesis inhibitors, primary screen (AID 463173)
# Particulars: S. aureus RN4220 wild type/DeltatarO growth, OD600, 18 h, screened at 18.75 µg/mL (by protocol)
About 4,300 (8.3%) of roughly 52,000 compounds were called active. No stated cut-off is given here; in the data, active means survival mostly below about 52% (no sharp cut-off); inactive means mostly above about 56%. The full list was thinned out, with actives kept by preference.
Lab note: assign the record to one of active, inactive

Example entries begin here.
For CC(=O)Nc1ccc(OC(=O)c2ccco2)cc1 , what call appears in the results of this test?
inactive

Param item: COc1cc(C2c3c(oc4ccccc4c3=O)C(=O)N2c2nnc(C(C)C)s2)cc(OC)c1OC (stereo not given)
inactive

Param item: CCc1cccc(C)c1NC(=O)C1CCN(S(=O)(=O)c2cc(Br)cc3c2N(C(C)=O)CC3)CC1
inactive

Param item: CC(C)c1nnc(N2C(=O)c3oc4ccccc4c(=O)c3C2c2cccc(O)c2)s1 (stereo not given)
inactive

Param item: CCOC(=O)c1sc(N2C(=O)c3oc4ccccc4c(=O)c3C2c2ccc(C(C)(C)C)cc2)nc1C (stereo not given)
active

Param item: CCOc1ccc2[nH]c(=O)c(CN(Cc3ccccc3)C(=O)N3CCOCC3)cc2c1
inactive

Param item: Cc1ccc(S(=O)(=O)c2nc(-c3ccccc3Cl)oc2N2CCCCCC2)cc1
active

Param item: O=S(=O)(c1ccccc1)c1nc(-c2ccccc2F)oc1N1CCOCC1
inactive

---
For CCCCNC(=O)C1CCN(S(=O)(=O)c2cc(Br)cc3c2N(C(=O)CC)CC3)CC1 , what call appears in the results of this test?
inactive

Param item: O=C(c1cccc(Cl)c1)n1nc(-c2cccnc2)nc1NCc1ccccc1
inactive

----------
# Tested on: DeltatarO mutant
# Experiment: S. aureus survival, RN4220 and DeltatarO strains – OD600, teichoic acid synthesis inhibitors, primary screen (AID 463173)
# Particulars: S. aureus RN4220 wild type/DeltatarO growth, OD600, 18 h, active compounds read low, screened at 18.75 µg/mL (by protocol)
Among all 52,000 compounds or so, about 4,300 (8.3%) were called active. The list comes from a sample in which actives are over-represented; it also holds close analogues and randomly drawn compounds.
Outcome measure: survival (%)
Quick note: give the figure in %, leave out the unit.

GET /values?readout=survival&item= CC(C)(C)OC(=O)N/N=C/c1cccc(O)c1
79

Param item: CCc1cccc(NC(=O)Cn2c(=O)n(-c3ccccc3C)c(=O)c3c2c2cc(C)ccc2n3C)c1
85

Param item: CCOC(=O)c1c(S(=O)(=O)NCC(=O)N2CCN(c3ccccc3OC)CC2)c(C)n(C)c1C
77

Param item: COc1ccc(OC)c(NC(=O)Cn2c(=O)n(Cc3nc(C)no3)c(=O)c3ccccc32)c1
90

---
GET /values?readout=survival&item= CCC(Sc1nnc2c(n1)[nH]c1ccccc12)C(=O)Nc1ccccc1OC (stereo not given)
56

----------
# Test system: DeltatarO mutant
# Experiment: S. aureus survival, RN4220 and DeltatarO strains – OD600, teichoic acid synthesis inhibitors, primary screen (AID 463173)
# Particulars: S. aureus RN4220 wild type/DeltatarO growth, OD600, 18 h, screened at 18.75 µg/mL (by protocol)
Out of some 52,000 compounds screened, about 4,300 (8.3%) were called active. No stated cut-off is given here; in the data, active means survival mostly below about 52% (no sharp cut-off); inactive means mostly above about 56%. The sample as a whole holds a higher share of actives than the screen did.
Lab note: assign the record to one of 1 (active), -1 (inactive)

Example entries begin here.
For Cc1ccc(CNc2nc(-c3ccco3)nn2S(=O)(=O)c2ccc3ccccc3c2)cc1 , what call appears in the results of this test?
-1

Param item: CCOC(=O)c1ccc(NC(=O)c2ccc3c(c2)c(C)c(C)n3Cc2ccc(F)cc2)cc1
-1

Param item: COc1ccc(C)c2sc(N(Cc3cccnc3)C(C)=O)nc12
-1

Param item: COc1ccc(NC(=O)Cn2c(=O)n(-c3ccc(OC)cc3)c(=O)c3ccc(C(=O)NCc4ccc(C)cc4)cc32)cc1
-1

Param item: CCC(=O)N1c2ccccc2CC1C(=O)NCc1cccc(OC)c1OC (stereo not given)
-1

---
For COC(=O)C1=CN(C2CC2)C=C(C(=O)OC)C1c1ccsc1 , what call appears in the results of this test?
1

Param item: CCN1CCOC(=O)C1CC(=O)Nc1cc(Cl)ccc1OC (stereo not given)
-1

Param item: CCC(Sc1nc2ncccc2o1)C(=O)Nc1ccc(OC)c(OC)c1 (stereo not given)
-1

Param item: Cc1ccccc1OCCSc1nc2ccc(NC(=O)c3ccco3)cc2s1
1

Param item: COc1cccc2sc(N(Cc3cccnc3)C(=O)C3CCCCC3)nc12
-1

Data credit: PubChem BioAssay AID463173
